Molecular target: HIV-1 REJO4541.67 envelope (Env) on Env.IMC.LucR virus (HIV-1 clade B)
Assay: cell-based or functional assay
assayEndpoint: IC50 of virus neutralization (TZM-BL, luciferase)

[
  {
    "binder": "CysCV (antibody, V domains shown) VH: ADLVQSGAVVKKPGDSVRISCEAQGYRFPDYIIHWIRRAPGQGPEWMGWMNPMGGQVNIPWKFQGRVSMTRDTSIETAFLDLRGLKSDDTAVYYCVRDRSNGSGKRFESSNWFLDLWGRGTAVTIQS VL: QSALTQPRSVSASPGQSVTISCTGTHNLVSWVQHQPGRAPKLLIYDFNKRPSGVPDRFSGSGSGGTASLTITGLQDDDDAEYFCWAYEAFGGGTKLTVL",
    "reading": "≤ 0.02 µg/mL"
  },
  {
    "binder": "CysCA (antibody, V domains shown) VH: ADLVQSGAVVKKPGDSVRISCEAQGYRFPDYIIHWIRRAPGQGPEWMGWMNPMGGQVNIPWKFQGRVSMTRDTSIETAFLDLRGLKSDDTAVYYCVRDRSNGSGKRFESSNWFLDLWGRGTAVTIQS VL: QSALTQPRSVSASPGQSVTISCTGTHNLVSWAQHQPGRAPKLLIYDFNKRPSGVPDRFSGSGSGGTASLTITGLQDDDDAEYFCWAYEAFGGGTKLTVL",
    "reading": "≤ 0.02 µg/mL"
  },
  {
    "binder": "Cd4bs_H53MS_H54GY (antibody, V domains shown) VH: ADLVQSGAVVKKPGDSVRISCEAQGYRFPDYIIHWIRRAPGQGPEWMGWMNPSYGQVNIPWKFQGRVSMTRDTSIETAFLDLRGLKSDDTAVYYCVRDRSNGSGKRFESSNWFLDLWGRGTAVTIQS VL: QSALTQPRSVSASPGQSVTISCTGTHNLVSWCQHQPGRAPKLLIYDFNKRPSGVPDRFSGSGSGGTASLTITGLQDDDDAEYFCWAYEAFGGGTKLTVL",
    "reading": "0.044 µg/mL"
  }
]
